What 3F8 Ortho Proliferation Signal 1:50 was measured for each of the following?
Target: T1, orthogonal hCD122 receptor (hoRb), hCD122 with H133D and Y134F (human, UniProt P14784 27-550)
T1 sequence: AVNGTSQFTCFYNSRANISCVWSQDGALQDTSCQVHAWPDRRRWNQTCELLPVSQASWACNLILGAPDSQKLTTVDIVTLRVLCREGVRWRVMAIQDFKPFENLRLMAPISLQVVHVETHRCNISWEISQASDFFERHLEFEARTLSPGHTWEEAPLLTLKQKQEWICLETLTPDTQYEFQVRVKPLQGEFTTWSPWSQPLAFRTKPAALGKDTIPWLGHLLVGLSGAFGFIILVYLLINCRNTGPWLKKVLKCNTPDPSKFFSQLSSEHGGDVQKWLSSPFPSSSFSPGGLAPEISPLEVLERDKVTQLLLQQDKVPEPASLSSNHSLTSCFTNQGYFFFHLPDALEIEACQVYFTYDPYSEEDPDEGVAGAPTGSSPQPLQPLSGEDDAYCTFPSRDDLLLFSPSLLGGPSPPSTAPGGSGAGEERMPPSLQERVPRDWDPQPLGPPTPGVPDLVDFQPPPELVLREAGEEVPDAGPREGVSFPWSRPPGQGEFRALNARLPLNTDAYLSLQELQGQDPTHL
Assay: cell-based or functional assay
A number alone suffices; assume cts/min.

q: Provide 3F8 Ortho Proliferation Signal 1:50 value for the following binder: R81Y, SQVLKA (ligand) APTSSSTKKTQLQLSQLLVLLKAILNGINNYKNPKLTRMLTFKFYMPKKATELKHLQCLEEELKPLEEVLNLAQSKNFHLYPRDLISNINVIVLELKGSETTFMCEYADETATIVEFLNRWITFCQSIISTLT
a: 16500

q: Provide 3F8 Ortho Proliferation Signal 1:50 value for the following binder: Q126D, SQVLKA (ligand) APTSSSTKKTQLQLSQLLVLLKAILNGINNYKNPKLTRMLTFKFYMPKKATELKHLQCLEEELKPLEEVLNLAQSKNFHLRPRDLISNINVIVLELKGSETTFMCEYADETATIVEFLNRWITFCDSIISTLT
a: 544

q: Provide 3F8 Ortho Proliferation Signal 1:50 value for the following binder: T3G, SQVLKA (ligand) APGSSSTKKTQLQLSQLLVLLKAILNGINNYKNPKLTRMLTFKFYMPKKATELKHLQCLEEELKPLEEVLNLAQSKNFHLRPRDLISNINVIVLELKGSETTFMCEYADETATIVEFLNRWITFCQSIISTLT
a: 9460

q: Provide 3F8 Ortho Proliferation Signal 1:50 value for the following binder: L18M, SQVLKA (ligand) APTSSSTKKTQLQLSQLMVLLKAILNGINNYKNPKLTRMLTFKFYMPKKATELKHLQCLEEELKPLEEVLNLAQSKNFHLRPRDLISNINVIVLELKGSETTFMCEYADETATIVEFLNRWITFCQSIISTLT
a: 37200
